A collection of compounds and their measured MIC
Test system: Escherichia coli
Experiment: Antibacterial activity against NEO-sensitive Escherichia coli ATCC 25922 after 15 to 20 hrs by CLSI protocol based microdilution assay
Type: functional

# compound.smiles, measurement.target, MIC
rows = [
    ("NC[C@@H]1O[C@H](O[C@H]2[C@@H](O)[C@H](O[C@@H]3[C@@H](O)[C@H](N)C[C@H](N)[C@H]3O[C@H]3O[C@H](CN)[C@@H](O)[C@H](O)[C@H]3N)O[C@@H]2CNC(=O)CCCc2ccc3ccc4cccc5ccc2c3c45)[C@H](N)[C@@H](O)[C@@H]1O", "Escherichia coli", "> 25 µM"),
    ("NC[C@@H]1O[C@H](O[C@H]2[C@@H](O)[C@H](O[C@@H]3[C@@H](O)[C@H](N)C[C@H](N)[C@H]3O[C@H]3O[C@H](CN)[C@@H](O)[C@H](O)[C@H]3N)O[C@@H]2CSCCNC(=O)Cc2ccc3ccc4cccc5ccc2c3c45)[C@H](N)[C@@H](O)[C@@H]1O", "Escherichia coli", "> 25 µM"),
    ("NC[C@@H]1O[C@H](O[C@H]2[C@@H](O)[C@H](O[C@@H]3[C@@H](O)[C@H](N)C[C@H](N)[C@H]3O[C@H]3O[C@H](CN)[C@@H](O)[C@H](O)[C@H]3N)O[C@@H]2CSCCNC(=O)CCCc2ccc3ccc4cccc5ccc2c3c45)[C@H](N)[C@@H](O)[C@@H]1O", "Escherichia coli", "> 25 µM"),
    ("NC[C@@H]1O[C@H](O[C@H]2[C@@H](O)[C@H](O[C@@H]3[C@@H](O)[C@H](N)C[C@H](N)[C@H]3O[C@H]3O[C@H](CN)[C@@H](O)[C@H](O)[C@H]3N)O[C@@H]2CSCCNC(=S)NCCCCCCNC(=O)CCCc2ccc3ccc4cccc5ccc2c3c45)[C@H](N)[C@@H](O)[C@@H]1O", "Escherichia coli", "> 25 µM"),
    ("NC[C@@H]1O[C@H](O[C@H]2[C@@H](O)[C@H](O[C@@H]3[C@@H](O)[C@H](N)C[C@H](N)[C@H]3O[C@H]3O[C@H](CN)[C@@H](O)[C@H](O)[C@H]3N)O[C@@H]2CO)[C@H](N)[C@@H](O)[C@@H]1O", "Escherichia coli", "3.13 µM"),
]

====

Experiment: Inhibition of APH(2\")-1a (unknown origin)
Activity calls are given as the source filed them. The rule behind the calls is not given here.
Labels: active, inactive

# compound.smiles, label.value
measured = [
    ("NC[C@@H]1O[C@H](O[C@H]2[C@@H](O)[C@H](O[C@@H]3[C@@H](O)[C@H](N)C[C@H](N)[C@H]3O[C@H]3O[C@H](CN)[C@@H](O)[C@H](O)[C@H]3N)O[C@@H]2CNC(=O)Cc2ccc3ccc4cccc5ccc2c3c45)[C@H](N)[C@@H](O)[C@@H]1O", "active"),
    ("NC[C@@H]1O[C@H](O[C@H]2[C@@H](O)[C@H](O[C@@H]3[C@@H](O)[C@H](N)C[C@H](N)[C@H]3O[C@H]3O[C@H](CN)[C@@H](O)[C@H](O)[C@H]3N)O[C@@H]2CSCCNC(=S)NCCCCCCNC(=O)CCCc2ccc3ccc4cccc5ccc2c3c45)[C@H](N)[C@@H](O)[C@@H]1O", "active"),
    ("NC[C@@H]1O[C@H](O[C@H]2[C@@H](O)[C@H](O[C@@H]3[C@@H](O)[C@H](N)C[C@H](N)[C@H]3O[C@H]3O[C@H](CN)[C@@H](O)[C@H](O)[C@H]3N)O[C@@H]2CSCCNC(=O)CCc2ccc3ccc4cccc5ccc2c3c45)[C@H](N)[C@@H](O)[C@@H]1O", "active"),
    ("NC[C@@H]1O[C@H](O[C@H]2[C@@H](O)[C@H](O[C@@H]3[C@@H](O)[C@H](N)C[C@H](N)[C@H]3O[C@H]3O[C@H](CN)[C@@H](O)[C@H](O)[C@H]3N)O[C@@H]2CSCCNC(=O)CCCc2ccc3ccc4cccc5ccc2c3c45)[C@H](N)[C@@H](O)[C@@H]1O", "inactive"),
    ("NC[C@@H]1O[C@H](O[C@H]2[C@@H](O)[C@H](O[C@@H]3[C@@H](O)[C@H](N)C[C@H](N)[C@H]3O[C@H]3O[C@H](CN)[C@@H](O)[C@H](O)[C@H]3N)O[C@@H]2CSCCNC(=O)Cc2ccc3ccc4cccc5ccc2c3c45)[C@H](N)[C@@H](O)[C@@H]1O", "active"),
]

====

Assay: Inhibition of APH(3')-1a (unknown origin)
Active and inactive are the calls of the source. The calls are words filed in the database; no cut-off is given here.
Labels: active, inactive

# compound.smiles, label.value
records = [
    ("NC[C@@H]1O[C@H](O[C@H]2[C@@H](O)[C@H](O[C@@H]3[C@@H](O)[C@H](N)C[C@H](N)[C@H]3O[C@H]3O[C@H](CN)[C@@H](O)[C@H](O)[C@H]3N)O[C@@H]2CNC(=O)Cc2ccc3ccc4cccc5ccc2c3c45)[C@H](N)[C@@H](O)[C@@H]1O", "active"),
    ("NC[C@@H]1O[C@H](O[C@H]2[C@@H](O)[C@H](O[C@@H]3[C@@H](O)[C@H](N)C[C@H](N)[C@H]3O[C@H]3O[C@H](CN)[C@@H](O)[C@H](O)[C@H]3N)O[C@@H]2CNC(=O)CCc2ccc3ccc4cccc5ccc2c3c45)[C@H](N)[C@@H](O)[C@@H]1O", "active"),
    ("NC[C@@H]1O[C@H](O[C@H]2[C@@H](O)[C@H](O[C@@H]3[C@@H](O)[C@H](N)C[C@H](N)[C@H]3O[C@H]3O[C@H](CN)[C@@H](O)[C@H](O)[C@H]3N)O[C@@H]2CNC(=O)CCCc2ccc3ccc4cccc5ccc2c3c45)[C@H](N)[C@@H](O)[C@@H]1O", "active"),
    ("NC[C@@H]1O[C@H](O[C@H]2[C@@H](O)[C@H](O[C@@H]3[C@@H](O)[C@H](N)C[C@H](N)[C@H]3O[C@H]3O[C@H](CN)[C@@H](O)[C@H](O)[C@H]3N)O[C@@H]2CSCCNC(=O)CCc2ccc3ccc4cccc5ccc2c3c45)[C@H](N)[C@@H](O)[C@@H]1O", "active"),
    ("NC[C@@H]1O[C@H](O[C@H]2[C@@H](O)[C@H](O[C@@H]3[C@@H](O)[C@H](N)C[C@H](N)[C@H]3O[C@H]3O[C@H](CN)[C@@H](O)[C@H](O)[C@H]3N)O[C@@H]2CSCCNC(=O)CCCc2ccc3ccc4cccc5ccc2c3c45)[C@H](N)[C@@H](O)[C@@H]1O", "inactive"),
    ("NC[C@@H]1O[C@H](O[C@H]2[C@@H](O)[C@H](O[C@@H]3[C@@H](O)[C@H](N)C[C@H](N)[C@H]3O[C@H]3O[C@H](CN)[C@@H](O)[C@H](O)[C@H]3N)O[C@@H]2CSCCNC(=S)NCCCCCCNC(=O)CCCc2ccc3ccc4cccc5ccc2c3c45)[C@H](N)[C@@H](O)[C@@H]1O", "active"),
    ("NC[C@@H]1O[C@H](O[C@H]2[C@@H](O)[C@H](O[C@@H]3[C@@H](O)[C@H](N)C[C@H](N)[C@H]3O[C@H]3O[C@H](CN)[C@@H](O)[C@H](O)[C@H]3N)O[C@@H]2CSCCNC(=O)Cc2ccc3ccc4cccc5ccc2c3c45)[C@H](N)[C@@H](O)[C@@H]1O", "active"),
]

====

Tested on: Staphylococcus aureus
Assay: Antibacterial activity against methicillin-resistant Staphylococcus aureus M0602 at 6.25 uM after 15 to 20 hrs by CLSI protocol based microdilution assay relative to control
Type: functional

# compound.smiles, Activity
data = [
    ("NC[C@@H]1O[C@H](O[C@H]2[C@@H](O)[C@H](O[C@@H]3[C@@H](O)[C@H](N)C[C@H](N)[C@H]3O[C@H]3O[C@H](CN)[C@@H](O)[C@H](O)[C@H]3N)O[C@@H]2CSCCNC(=S)NCCCCCCNC(=O)CCCc2ccc3ccc4cccc5ccc2c3c45)[C@H](N)[C@@H](O)[C@@H]1O", "0%"),
    ("NC[C@@H]1O[C@H](O[C@H]2[C@@H](O)[C@H](O[C@@H]3[C@@H](O)[C@H](N)C[C@H](N)[C@H]3O[C@H]3O[C@H](CN)[C@@H](O)[C@H](O)[C@H]3N)O[C@@H]2CSCCNC(=O)CCCc2ccc3ccc4cccc5ccc2c3c45)[C@H](N)[C@@H](O)[C@@H]1O", "32%"),
]

====

Assay: Inhibition of AAC(3)-4 (unknown origin)
The source made the active and inactive calls. The calls are words filed in the database; no cut-off is given here.
Labels: class 1 (active), class 0 (inactive)

# compound.smiles, label.value
data = [
    ("NC[C@@H]1O[C@H](O[C@H]2[C@@H](O)[C@H](O[C@@H]3[C@@H](O)[C@H](N)C[C@H](N)[C@H]3O[C@H]3O[C@H](CN)[C@@H](O)[C@H](O)[C@H]3N)O[C@@H]2CSCCNC(=S)NCCCCCCNC(=O)CCCc2ccc3ccc4cccc5ccc2c3c45)[C@H](N)[C@@H](O)[C@@H]1O", "class 1"),
    ("NC[C@@H]1O[C@H](O[C@H]2[C@@H](O)[C@H](O[C@@H]3[C@@H](O)[C@H](N)C[C@H](N)[C@H]3O[C@H]3O[C@H](CN)[C@@H](O)[C@H](O)[C@H]3N)O[C@@H]2CSCCNC(=O)CCCc2ccc3ccc4cccc5ccc2c3c45)[C@H](N)[C@@H](O)[C@@H]1O", "class 0"),
]
